- Study System: Plant p-Hydroxyphenylpyruvate Dioxygenase (Arabidopsis enzyme overexpressed in E. coli) (Arabidopsis thaliana, UniProt P93836)
- Construct: The first 11 cycles identified […]; initiator Met (ATG start codon put in front of Ser30 by oligos CAM32/CAM33) (N, cleaved yes); made in house; host or cells: E. coli BL21(DE3) carrying pE24CP1 (pET24c(+) backbone), IPTG-induced; cell extract
- Sequence (P93836 30-445): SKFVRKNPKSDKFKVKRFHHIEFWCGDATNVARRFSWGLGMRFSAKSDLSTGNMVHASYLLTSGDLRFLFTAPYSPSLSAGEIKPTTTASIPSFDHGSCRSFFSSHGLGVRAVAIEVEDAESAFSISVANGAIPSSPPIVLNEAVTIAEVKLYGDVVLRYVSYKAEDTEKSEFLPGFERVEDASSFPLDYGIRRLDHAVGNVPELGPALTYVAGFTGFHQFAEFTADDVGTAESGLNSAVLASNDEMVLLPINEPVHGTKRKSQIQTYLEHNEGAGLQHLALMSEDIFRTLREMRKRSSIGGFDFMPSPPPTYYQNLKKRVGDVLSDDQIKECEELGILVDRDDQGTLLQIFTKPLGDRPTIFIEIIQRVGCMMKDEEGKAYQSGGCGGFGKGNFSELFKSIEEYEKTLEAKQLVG
- Test Description: 14CO2 release assay from 14C-p-hydroxyphenylpyruvate with overexpressed protein
- Type: biochemical
- From the text: Cell cultures with different plasmid constructs were extracted as described above and assayed by measuring the formation of ^14Co2 from [1-^14C]-p-hydroxyphenylpyruvate or ^14CO2 and ^14C-homogentisate from [U-^14C]-p-hydroxyphenylpyruvate (Lindblad, B., (1971) Clin. Chim. Acta 34:113-121; and Lindstedt, S. and Odelhog, B., (1987) Methods in Enzymology 142:143-148). […]
Quantity Measured: pIC50
Give bare numbers, as −log10 of the molar value.

[Q] Dear colleague, please send me the reported pIC50 for CS(=O)(=O)c1ccc(C(=O)C2C(=O)CCCC2=O)c(Cl)c1 when you can.
[A] 7.37

---

- Study System: Plant p-Hydroxyphenylpyruvate Dioxygenase (Arabidopsis enzyme overexpressed in E. coli) (Arabidopsis thaliana, UniProt P93836)
- Construct: The first 11 cycles identified […]; initiator Met (ATG start codon put in front of Ser30 by oligos CAM32/CAM33) (N, cleaved yes); made in house; host or cells: E. coli BL21(DE3) carrying pE24CP1 (pET24c(+) backbone), IPTG-induced; cell extract
- Test Description: continuous spectrophotometric enol borate-tautomerase assay with overexpressed protein
- Assay type: biochemical
Quantity Measured: IC50 (µM)
Numbers only, in µM.

[Q] Annotate the molecule CS(=O)(=O)c1ccc(C(=O)C2C(=O)CCCC2=O)c(Cl)c1 with its measured IC50.
[A] 0.044
